- testTarget: Adenosine receptor A1 (Homo sapiens) (UniProt P30542)
- Sequence (P30542 whole entry): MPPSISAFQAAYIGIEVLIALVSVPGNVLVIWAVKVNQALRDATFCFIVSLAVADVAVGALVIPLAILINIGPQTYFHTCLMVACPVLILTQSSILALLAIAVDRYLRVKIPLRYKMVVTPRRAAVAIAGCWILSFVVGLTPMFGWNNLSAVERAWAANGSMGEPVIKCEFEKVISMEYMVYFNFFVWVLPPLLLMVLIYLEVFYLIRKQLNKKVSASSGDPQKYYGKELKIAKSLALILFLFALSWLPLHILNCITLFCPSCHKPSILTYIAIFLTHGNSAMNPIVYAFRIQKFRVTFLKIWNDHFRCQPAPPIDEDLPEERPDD
- protocol: Allosteric enhancing activity at human adenosine A1 receptor expressed in CHO cells assessed as increase in CCPA-induced [3H]DPCPX displacement at 10 uM after 90 mins relative to control
- Assay type: cell-based
Parameter Ratio Ki: see the listing below.
measureName: Ratio Ki

1. Cc1sc(N)c(C(=O)c2ccc(Cl)cc2)c1CN1CCN(c2ccccc2)CC1 | 6.4
2. Nc1sc(-c2ccc(Cl)cc2)c(CN2CCN(c3ccc(Cl)c(C(F)(F)F)c3)CC2)c1C(=O)c1ccc(Cl)cc1 | 8
3. Cc1sc(N)c(C(=O)c2ccc(Cl)cc2)c1CN1CCN(c2ccc(Br)cc2)CC1 | 4.5
4. Cc1sc(N)c(C(=O)c2ccc(Cl)cc2)c1CN1CCN(c2ccc(I)cc2)CC1 | 4.8
5. Nc1sc(-c2ccccc2)c(CN2CCN(c3ccc(Cl)cc3)CC2)c1C(=O)c1ccc(Cl)cc1 | 7.9
